This collection of values is drawn from ChEMBL document CHEMBL1151577.

# target of assay: C5a anaphylatoxin chemotactic receptor 1 (Homo sapiens) (UniProt P21730)
# Sequence (whole entry): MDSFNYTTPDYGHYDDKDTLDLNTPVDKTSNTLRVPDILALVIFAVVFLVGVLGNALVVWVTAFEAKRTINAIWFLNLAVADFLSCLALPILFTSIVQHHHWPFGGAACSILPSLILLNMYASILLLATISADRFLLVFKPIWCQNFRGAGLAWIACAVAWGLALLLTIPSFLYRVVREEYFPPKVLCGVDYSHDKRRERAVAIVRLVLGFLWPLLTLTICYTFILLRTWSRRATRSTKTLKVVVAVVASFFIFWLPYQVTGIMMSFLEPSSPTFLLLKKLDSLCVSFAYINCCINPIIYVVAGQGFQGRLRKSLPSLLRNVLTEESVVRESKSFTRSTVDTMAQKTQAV
# experimental details: Nonspecific degranulation of polymorho neutrophils as measured by myeloperoxidase (MPO) release in a whole functional cell assay
Here the recorded Concentration causing nonspecific degranulation (MPO release) is given for each entry.
Hi! Could you send only the number? It should be in µg/mL, unit omitted.

Field: example entries. Status: answers known.
CC[C@H](C)C[C@H]1CC[C@](O)([C@](C)(O)C(=O)N[C@@H]2C(=O)N3NCCC[C@@H]3C(=O)N(OCc3ccccc3)[C@@H](C)C(=O)NCC(=O)N3NCCC[C@H]3C(=O)N[C@H](C)C(=O)O[C@H]2C(C)C)O[C@@H]1C : 18
CC(C)[C@@H]1OC(=O)[C@@H](C)N(O)C(=O)[C@@H]2CCCNN2C(=O)CNC(=O)[C@H](C)N(O)C(=O)[C@H]2CCCNN2C(=O)[C@H]1NC(=O)[C@@](C)(O)CCCc1ccccc1 : 9
CC[C@H](C)C[C@H]1CC[C@](O)([C@](C)(O)C(=O)N[C@@H]2C(=O)N3[C@H](CCCN3C)C(=O)N(O)[C@@H](C)C(=O)NCC(=O)N3[C@@H](CCCN3C)C(=O)N(O)[C@H](C)C(=O)O[C@H]2C(C)C)O[C@@H]1C : 10
CC[C@H](C)C[C@H]1CC[C@](O)([C@](C)(O)C(=O)N[C@@H]2C(=O)N3NCCC[C@@H]3C(=O)N(C(C)=O)[C@@H](C)C(=O)NCC(=O)N3NCCC[C@H]3C(=O)N(O)[C@H](C)C(=O)O[C@H]2C(C)C)O[C@@H]1C : 0.3
CC[C@H](C)C[C@H]1CC[C@](O)([C@](C)(O)C(=O)N[C@@H]2C(=O)N3NCCC[C@@H]3C(=O)N(O)[C@@H](C)C(=O)NCC(=O)N3NCCC[C@H]3C(=O)N(C)[C@H](C)C(=O)O[C@H]2C(C)C)O[C@@H]1C : 4

Let us examine a further case.
Report measured Concentration causing nonspecific degranulation (MPO release); entry is `CC[C@H](C)C[C@H]1CC[C@](O)([C@](C)(O)C(=O)N[C@@H]2C(=O)N3NCCC[C@@H]3C(=O)N(OC)[C@@H](C)C(=O)NCC(=O)N3NCCC[C@H]3C(=O)N(C)[C@H](C)C(=O)O[C@H]2C(C)C)O[C@@H]1C` 20
